assay-system: GHSR1a (Homo sapiens, UniProt Q92847)
Sequence (Q92847 whole entry): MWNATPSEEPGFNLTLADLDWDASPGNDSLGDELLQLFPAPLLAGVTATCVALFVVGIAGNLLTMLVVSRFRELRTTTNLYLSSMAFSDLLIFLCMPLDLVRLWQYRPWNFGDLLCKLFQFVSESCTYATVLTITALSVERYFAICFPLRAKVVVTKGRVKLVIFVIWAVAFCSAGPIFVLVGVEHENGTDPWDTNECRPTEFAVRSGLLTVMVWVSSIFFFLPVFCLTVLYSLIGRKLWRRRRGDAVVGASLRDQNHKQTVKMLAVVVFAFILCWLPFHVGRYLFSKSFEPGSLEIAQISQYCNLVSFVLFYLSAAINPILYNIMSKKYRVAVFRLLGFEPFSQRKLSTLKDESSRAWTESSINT
experiment: Calcium FLIPR assay, GHSR-1a antagonism (reduction of ghrelin response)
experimental-conditions: HEK293/GHSR1a cells, ghrelin 10 nM
Please provide measured pIC50 for the entries that follow.
Please report pIC50 as the negative decimal logarithm of the molar concentration, giving only the number.

Look at this molecule and give its reported pIC50. CC(NC(=O)N(C)C1CCN(C)CC1)c1ccc(-c2ccc(C=O)s2)c(Cl)c1Cl (stereo not shown) [Compound H0651]
8.40

Any idea what pIC50 was measured for CC(NC(=O)N(C)C1CCN(C)CC1)c1ccc(-c2cncc(F)c2)c(Cl)c1Cl (stereo not shown) ?
7.92

Give its pIC50 value. Item: CC(NC(=O)N(C)C1CCN(C)CC1)c1ccc(CC#N)c(Cl)c1Cl (stereo not shown)
8.52

Fill blank: measured pIC50 of the molecule CC(NC(=O)N(C)C1CCN(C)CC1)c1ccc(CCCO)c(Cl)c1Cl (stereo not shown) is ____.
7.66

----------
assay-system: GHSR1a (Homo sapiens, UniProt Q92847)
experiment: Calcium FLIPR assay, GHSR-1a agonism
experimental-conditions: HEK293/GHSR1a cells
measured-quantity: EC50

// lookup EC50 for CC(NC(=O)N(C)C1CCN(C)CC1)c1ccc(-c2cccs2)c(Cl)c1Cl (stereo not shown) [Compound H0536]
> 30 µM

Please look up its EC50: CC(NC(=O)N(C)C1CCN(C)CC1)c1ccc(C2CC2)c(Cl)c1Cl (stereo not shown)
0.066 µM

Fill in: EC50 of CC(NC(=O)N(C)C1CCN(C)CC1)c1ccc(CCCO)c(Cl)c1Cl (stereo not shown) is ___
0.083 µM

Record request: EC50 value, item CC(NC(=O)N(C)C1CCN(C)CC1)c1ccc(-c2ccsc2)c(Cl)c1Cl (stereo not shown)
> 30 µM

Entry under review: C[C@H](NC(=O)N(C)[C@@H]1CCN(C)CC1(C)C)c1ccc(-c2cnccn2)c(Cl)c1Cl . Reported EC50?
> 30 µM

Which EC50 value is on record for CC(NC(=O)N(C)C1CCN(C)CC1C)c1ccc(-c2cn[nH]c2)c(Cl)c1Cl (stereo not shown) ?
> 30 µM

What does the data say about its EC50? Entry: CC(NC(=O)N(C)C1CCN(C)CC1)c1ccc(-c2cnc(Cl)nc2)c(Cl)c1Cl (stereo not shown)
0.045 µM

Any idea what EC50 was measured for CC(NC(=O)N(C)C1CCN(C)CC1)c1ccc(-c2cccc(N)c2)c2ccccc12 (stereo not shown) ?
0.126 µM

What value of EC50 has been reported for the following compound? CN1CCC(N(C)C(=O)NC(CC2CC2)c2ccc(-c3cccnc3)c(Cl)c2Cl)CC1 (stereo not shown)
> 30 µM

Look up EC50 for this compound: CC(NC(=O)N(C)C1CCN(C)CC1)c1ccc(-c2cncc(F)n2)c(Cl)c1Cl (stereo not shown)
> 30 µM

Dear colleague, I am looking for the recorded EC50 of the following compound: Cc1ccc(-c2ccc(C(C)NC(=O)N(C)C3CCN(C)CC3)c(Cl)c2Cl)o1 (stereo not shown)
0.008 µM

Which EC50 value is on record for CN1CCC(N(C)C(=O)NC(CC2CC2)c2ccc(-c3ccc(C(N)=O)s3)c(Cl)c2Cl)CC1 (stereo not shown) ?
> 30 µM

Would you kindly share the measured EC50 for CC(NC(=O)N(C)C1CCN(C)CC1)c1ccc(-c2cccnc2)c(Cl)c1Cl (stereo not shown) ?
> 30 µM

Reported EC50 for CC(NC(=O)N(C)C1CCN(C)CC1)c1ccc(-c2cncc(-c3cncs3)c2)c(Cl)c1Cl (stereo not shown) : what is it?
> 30 µM

Dear colleague, I am looking for the recorded EC50 of the following compound: CC(NC(=O)N(C)C1CCN(C)CC1)c1ccc(-c2cccc(C#N)c2)c(Cl)c1Cl (stereo not shown)
> 30 µM

Which EC50 is reported for this compound? CC(NC(=O)N(Cc1ccc(CO)cc1)C1CCN(C)CC1)c1ccc(-c2cccnc2)c(Cl)c1Cl (stereo not shown)
> 30 µM
